Biological target: L858R/T790M/C797S triple mutant EGFR (Homo sapiens, UniProt P00533, C797S/L858R/T790M)
Construct: purchased Signalchem
Sequence (P00533 25-1210 T790M/C797S/L858R): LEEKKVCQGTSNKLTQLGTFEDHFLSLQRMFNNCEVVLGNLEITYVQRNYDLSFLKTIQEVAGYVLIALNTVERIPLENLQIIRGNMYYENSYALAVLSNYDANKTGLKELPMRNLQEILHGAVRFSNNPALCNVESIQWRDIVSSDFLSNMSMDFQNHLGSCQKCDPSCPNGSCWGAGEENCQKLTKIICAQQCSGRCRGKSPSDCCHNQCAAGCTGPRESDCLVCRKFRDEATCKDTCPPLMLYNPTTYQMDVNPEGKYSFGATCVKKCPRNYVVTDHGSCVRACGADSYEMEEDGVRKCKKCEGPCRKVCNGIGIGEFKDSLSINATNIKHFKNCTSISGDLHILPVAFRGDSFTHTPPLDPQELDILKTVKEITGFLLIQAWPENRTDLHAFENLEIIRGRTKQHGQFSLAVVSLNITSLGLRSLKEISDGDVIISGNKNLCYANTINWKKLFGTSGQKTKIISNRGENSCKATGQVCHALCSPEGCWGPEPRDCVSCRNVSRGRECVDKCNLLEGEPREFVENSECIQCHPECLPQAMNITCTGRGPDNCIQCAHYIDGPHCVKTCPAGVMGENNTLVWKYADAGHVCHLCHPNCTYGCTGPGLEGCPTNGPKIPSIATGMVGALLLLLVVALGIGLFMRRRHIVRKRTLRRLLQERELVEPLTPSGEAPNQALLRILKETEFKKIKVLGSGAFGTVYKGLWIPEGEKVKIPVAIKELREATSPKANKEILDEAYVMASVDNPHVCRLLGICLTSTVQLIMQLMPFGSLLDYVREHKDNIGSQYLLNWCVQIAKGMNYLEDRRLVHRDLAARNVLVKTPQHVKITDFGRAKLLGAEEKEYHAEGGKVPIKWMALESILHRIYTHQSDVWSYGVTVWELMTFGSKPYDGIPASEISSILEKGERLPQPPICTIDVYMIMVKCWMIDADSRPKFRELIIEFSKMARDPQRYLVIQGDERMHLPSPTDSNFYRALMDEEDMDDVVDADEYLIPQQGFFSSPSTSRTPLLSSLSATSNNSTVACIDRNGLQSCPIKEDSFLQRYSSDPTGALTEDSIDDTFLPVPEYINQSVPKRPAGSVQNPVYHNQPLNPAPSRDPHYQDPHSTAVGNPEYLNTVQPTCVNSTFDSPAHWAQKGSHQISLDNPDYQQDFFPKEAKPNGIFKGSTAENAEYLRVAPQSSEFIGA
Test: Enzymology experiment in vitro (HTRF/FRET kinase activity), L858R/T790M/C797S triple mutant EGFR
Type: biochemical
Conditions: HTRF KinEASE-TK, read-out: EGFR (L858R/T790M/C797S) IC50
pIC50: −log10 of the molar value.
METRIC: pIC50

The following compounds have reported results that may help.
[[record]]
compound = "[2H]C1([2H])OC([2H])([2H])C([2H])([2H])N(c2cc(OC)c(Nc3ncc(C)c(Nc4ccc5nccnc5c4P(C)(C)=O)n3)cc2-c2cnn(C)c2)C1([2H])[2H]"
reported_measurement = 9.74

[[record]]
compound = "COc1cc(N2CCN(C3(C)COC3)CC2)c(-c2cnn(C)c2)cc1Nc1ncc(Br)c(Nc2ccc3nccnc3c2P(C)(C)=O)n1"
reported_measurement = 9.62

[[record]]
compound = "CN1CCN(c2noc3c(Nc4ncc(Br)c(Nc5ccc6nccnc6c5P(C)(C)=O)n4)cc(-c4cnn(C)c4)cc23)CC1"
reported_measurement = 9.72

[[record]]
compound = "COc1cc(N2CCC(OC)C2)c(-c2cnn(C)c2)cc1Nc1ncc(Br)c(Nc2ccc3nccnc3c2P(C)(C)=O)n1 (stereo not drawn)"
reported_measurement = 9.28

[[record]]
compound = "[2H]C([2H])([2H])N(c1cc(OC)c(Nc2ncc(C)c(Nc3ccc4nccnc4c3P(C)(C)=O)n2)cc1-c1cnn(C)c1)C([2H])([2H])[2H]"
reported_measurement = 9.39


(1) COc1cc(N2CCN(C3COC3)CC2)c(-c2cnn(C)c2)cc1Nc1ncc(Br)c(Nc2ccc3nccnc3c2P(C)(C)=O)n1
(2) COc1cc(N2CCOC(C)(C)C2)c(-c2cnn(C)c2)cc1Nc1ncc(Br)c(Nc2ccc3nccnc3c2P(C)(C)=O)n1
(3) COc1cc(N2CCOCC2)c(-c2cnn(C)c2)cc1Nc1ncc(Br)c(Nc2ccc3nccnc3c2NS(C)(=O)=O)n1
(4) COc1cc(N2CCC3CCN(CCOC(C)C)C3C2)c(-c2cnn(C)c2)cc1Nc1ncc(Br)c(Nc2ccc3nccnc3c2P(C)(C)=O)n1 (stereo not drawn)
Query block: List by increasing pIC50. Dear reader, please state the labels in the requested order.
Result block: 2, 4, 1, 3

* * *

Target: wild-type EGFR (Homo sapiens, UniProt P00533)
Construct: purchased Signalchem
Sequence (P00533 25-1210): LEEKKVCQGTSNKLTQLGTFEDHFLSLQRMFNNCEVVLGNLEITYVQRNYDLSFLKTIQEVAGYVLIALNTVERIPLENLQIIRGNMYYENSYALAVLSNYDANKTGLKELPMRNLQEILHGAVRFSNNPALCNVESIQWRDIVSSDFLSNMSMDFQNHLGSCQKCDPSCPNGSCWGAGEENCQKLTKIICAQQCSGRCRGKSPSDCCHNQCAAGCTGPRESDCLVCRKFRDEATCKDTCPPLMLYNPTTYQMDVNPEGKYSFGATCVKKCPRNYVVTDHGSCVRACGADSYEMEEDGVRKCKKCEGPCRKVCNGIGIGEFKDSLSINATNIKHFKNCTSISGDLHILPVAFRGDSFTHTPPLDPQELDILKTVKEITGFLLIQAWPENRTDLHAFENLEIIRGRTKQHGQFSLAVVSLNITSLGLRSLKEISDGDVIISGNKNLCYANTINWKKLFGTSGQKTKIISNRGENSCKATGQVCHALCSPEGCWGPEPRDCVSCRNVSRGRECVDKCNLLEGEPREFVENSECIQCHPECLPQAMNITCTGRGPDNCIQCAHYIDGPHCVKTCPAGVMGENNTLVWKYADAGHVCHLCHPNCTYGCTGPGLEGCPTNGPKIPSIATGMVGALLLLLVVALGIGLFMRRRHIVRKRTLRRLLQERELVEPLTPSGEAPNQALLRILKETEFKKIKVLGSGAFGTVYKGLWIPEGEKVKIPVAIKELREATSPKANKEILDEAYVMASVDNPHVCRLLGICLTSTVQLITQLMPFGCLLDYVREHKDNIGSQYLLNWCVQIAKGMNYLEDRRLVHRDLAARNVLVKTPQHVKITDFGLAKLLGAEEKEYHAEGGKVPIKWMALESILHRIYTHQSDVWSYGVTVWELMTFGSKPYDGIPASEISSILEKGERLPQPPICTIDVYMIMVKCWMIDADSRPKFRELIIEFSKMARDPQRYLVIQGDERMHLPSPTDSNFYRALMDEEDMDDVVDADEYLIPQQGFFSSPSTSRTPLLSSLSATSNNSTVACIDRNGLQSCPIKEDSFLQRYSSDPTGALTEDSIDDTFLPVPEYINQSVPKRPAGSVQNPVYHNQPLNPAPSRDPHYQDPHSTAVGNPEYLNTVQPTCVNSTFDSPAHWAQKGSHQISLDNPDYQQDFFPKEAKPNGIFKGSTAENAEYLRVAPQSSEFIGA
Test: Enzymology experiment in vitro (HTRF/FRET kinase activity), wild-type EGFR
Type: biochemical
Conditions: HTRF KinEASE-TK, read-out: EGFR (WT) IC50
METRIC: IC50 (nM)

[[record]]
compound = "COc1cc(N2CCC3(CC2)CCN(C(C)(C)CF)CC3)c(-c2cnn(C)c2)cc1Nc1ncc(Br)c(Nc2ccc3nccnc3c2P(C)(C)=O)n1 [compound 243]"
reported_measurement = 4.91


(a) COC[C@H]1CN(c2cc(OC)c(Nc3ncc(Br)c(Nc4ccc5nccnc5c4P(C)(C)=O)n3)cc2-c2cnn(C)c2)CCO1 [compound 152]
(b) COCC1CCCN(c2cc(OC)c(Nc3ncc(Br)c(Nc4ccc5nccnc5c4P(C)(C)=O)n3)cc2-c2cnn(C)c2)C1 (stereo not drawn) [compound 162]
Query block: API: POST /compare with a and b ; response names the item with higher IC50. Bench note: the answer is the label of the chosen record.
Result block: b
